Experiment: gradient 5% acetonitrile 3 min, to 50% in 2 min, to 85% in 15 min, held 3 min, 100 µL/min
Settings: column: Zorbax Extend-C18 2.1 x 50 mm; eluents: water / acetonitrile, 0.1% formic acid
observable: RP-LC retention time (s)
I only need the number, in s, no unit after it.

Please review the entries below; each comes with its answer.
Cc1sc(-c2noc(C3CC3)n2)cc1S(=O)(=O)N1CCC(C(=O)N2CCOCC2)CC1 ... 853
CCSc1nnc(-c2nn(C)c3c2CN(S(=O)(=O)c2cccc(Cl)c2C)CC3)n1CC ... 1050
COc1ccc(-c2ncc3c(n2)CCN(S(=O)(=O)c2ccc(F)c(F)c2)C3)cc1 ... 1060
O=C(NCCc1c[nH]c2ccccc12)C(=O)NCc1cccs1 ... 783

Query: Tell me the measured RP-LC retention time of O=C(C1CCCN(c2nnc(N3CCCC3=O)s2)C1)N1CCN(c2ccccn2)CC1 (stereo not given) , please.
Response: 582
